// provenance: ChEMBL document CHEMBL4177611

Test: AUC in Sprague-Dawley rat at 2 mg/kg administered as single dose via oral gavage by LC-MS/MS analysis
Format: ADME, organism-based
Settings: in vivo
quantity name: AUC (µM·h)

Recorded AUC, per entry:
Cl.N[C@@H]1CCC=C(c2ccc(F)cc2)[C@H]1CSc1cc(F)c(S(=O)(=O)Nc2cscn2)cc1Cl = 0.62
Cl.N[C@@H]1CCC=C(c2ccc(F)cc2)[C@H]1CNc1cc(F)c(S(=O)(=O)Nc2nccs2)cc1Cl = 0.04
N[C@@H]1CCC=C(c2ccc(F)cc2)[C@H]1COc1cc(F)c(S(=O)(=O)Nc2cscn2)cc1Cl = 0.25

a = Cl.N[C@@H]1CCC=C(c2ccc(F)cc2)[C@H]1CSc1cc(F)c(S(=O)(=O)Nc2nccs2)cc1Cl
b = CCN[C@@H]1CCC=C(c2ccc(F)cc2)[C@H]1CNc1cc(F)c(S(=O)(=O)Nc2nccs2)cc1Cl.Cl
// compare: a vs b , metric AUC, want the smaller Answer format: the label of the selected item. a
(a: 0.17 µM·h, b: 0.29 µM·h)

----------
Experiment: Intrinsic clearance in human liver microsomes at 1 uM after 60 mins in presence of NADPH by LC-MS/MS analysis
Format: ADME, microsome
Details: read-out: CLH
quantity name: CLint scaled at 1 µM (mL/min/kg)

I = Cl.N[C@@H]1CCC=C(c2ccc(F)cc2)[C@H]1CNc1cc(F)c(S(=O)(=O)Nc2cscn2)cc1Cl
II = CCN[C@@H]1CCC=C(c2ccc(F)cc2)[C@H]1COc1cc(F)c(S(=O)(=O)Nc2cscn2)cc1Cl.Cl
// pick larger CLint scaled at 1 µM from pair: I vs II Answer format: the label of the selected item. II

----------
Experiment: Cmax in Sprague-Dawley rat at 2 mg/kg administered as single dose via oral gavage by LC-MS/MS analysis
Type: ADME, organism-based
Design: dose 2 mg/kg, route oral
Conditions: in vivo
quantity name: Cmax (nM)
Answer with a number only, understood to be in nM.

May I ask what Cmax has been recorded for N[C@@H]1CCC=C(c2ccc(F)cc2)[C@H]1COc1cc(F)c(S(=O)(=O)Nc2cscn2)cc1Cl ? 50

----------
Assay: Clearance in Sprague-Dawley rat administered as single iv bolus by LC-MS/MS analysis
Format: ADME, organism-based
Settings: in vivo
quantity name: clearance (mL/min/kg)

Cl.N[C@@H]1CCC=C(c2ccc(F)cc2)[C@H]1CNc1cc(F)c(S(=O)(=O)Nc2cscn2)cc1Cl = 19.8
Cl.N[C@@H]1CCC=C(c2ccc(F)cc2)[C@H]1COc1cc(F)c(S(=O)(=O)Nc2nccs2)cc1Cl (racemic) = 29
CCN[C@@H]1CCC=C(c2ccc(F)cc2)[C@H]1CNc1cc(F)c(S(=O)(=O)Nc2nccs2)cc1Cl.Cl = 27.5

----------
Biological target: Sodium channel protein type 9 subunit alpha (Homo sapiens, UniProt Q15858)
Sequence (Q15858 whole entry): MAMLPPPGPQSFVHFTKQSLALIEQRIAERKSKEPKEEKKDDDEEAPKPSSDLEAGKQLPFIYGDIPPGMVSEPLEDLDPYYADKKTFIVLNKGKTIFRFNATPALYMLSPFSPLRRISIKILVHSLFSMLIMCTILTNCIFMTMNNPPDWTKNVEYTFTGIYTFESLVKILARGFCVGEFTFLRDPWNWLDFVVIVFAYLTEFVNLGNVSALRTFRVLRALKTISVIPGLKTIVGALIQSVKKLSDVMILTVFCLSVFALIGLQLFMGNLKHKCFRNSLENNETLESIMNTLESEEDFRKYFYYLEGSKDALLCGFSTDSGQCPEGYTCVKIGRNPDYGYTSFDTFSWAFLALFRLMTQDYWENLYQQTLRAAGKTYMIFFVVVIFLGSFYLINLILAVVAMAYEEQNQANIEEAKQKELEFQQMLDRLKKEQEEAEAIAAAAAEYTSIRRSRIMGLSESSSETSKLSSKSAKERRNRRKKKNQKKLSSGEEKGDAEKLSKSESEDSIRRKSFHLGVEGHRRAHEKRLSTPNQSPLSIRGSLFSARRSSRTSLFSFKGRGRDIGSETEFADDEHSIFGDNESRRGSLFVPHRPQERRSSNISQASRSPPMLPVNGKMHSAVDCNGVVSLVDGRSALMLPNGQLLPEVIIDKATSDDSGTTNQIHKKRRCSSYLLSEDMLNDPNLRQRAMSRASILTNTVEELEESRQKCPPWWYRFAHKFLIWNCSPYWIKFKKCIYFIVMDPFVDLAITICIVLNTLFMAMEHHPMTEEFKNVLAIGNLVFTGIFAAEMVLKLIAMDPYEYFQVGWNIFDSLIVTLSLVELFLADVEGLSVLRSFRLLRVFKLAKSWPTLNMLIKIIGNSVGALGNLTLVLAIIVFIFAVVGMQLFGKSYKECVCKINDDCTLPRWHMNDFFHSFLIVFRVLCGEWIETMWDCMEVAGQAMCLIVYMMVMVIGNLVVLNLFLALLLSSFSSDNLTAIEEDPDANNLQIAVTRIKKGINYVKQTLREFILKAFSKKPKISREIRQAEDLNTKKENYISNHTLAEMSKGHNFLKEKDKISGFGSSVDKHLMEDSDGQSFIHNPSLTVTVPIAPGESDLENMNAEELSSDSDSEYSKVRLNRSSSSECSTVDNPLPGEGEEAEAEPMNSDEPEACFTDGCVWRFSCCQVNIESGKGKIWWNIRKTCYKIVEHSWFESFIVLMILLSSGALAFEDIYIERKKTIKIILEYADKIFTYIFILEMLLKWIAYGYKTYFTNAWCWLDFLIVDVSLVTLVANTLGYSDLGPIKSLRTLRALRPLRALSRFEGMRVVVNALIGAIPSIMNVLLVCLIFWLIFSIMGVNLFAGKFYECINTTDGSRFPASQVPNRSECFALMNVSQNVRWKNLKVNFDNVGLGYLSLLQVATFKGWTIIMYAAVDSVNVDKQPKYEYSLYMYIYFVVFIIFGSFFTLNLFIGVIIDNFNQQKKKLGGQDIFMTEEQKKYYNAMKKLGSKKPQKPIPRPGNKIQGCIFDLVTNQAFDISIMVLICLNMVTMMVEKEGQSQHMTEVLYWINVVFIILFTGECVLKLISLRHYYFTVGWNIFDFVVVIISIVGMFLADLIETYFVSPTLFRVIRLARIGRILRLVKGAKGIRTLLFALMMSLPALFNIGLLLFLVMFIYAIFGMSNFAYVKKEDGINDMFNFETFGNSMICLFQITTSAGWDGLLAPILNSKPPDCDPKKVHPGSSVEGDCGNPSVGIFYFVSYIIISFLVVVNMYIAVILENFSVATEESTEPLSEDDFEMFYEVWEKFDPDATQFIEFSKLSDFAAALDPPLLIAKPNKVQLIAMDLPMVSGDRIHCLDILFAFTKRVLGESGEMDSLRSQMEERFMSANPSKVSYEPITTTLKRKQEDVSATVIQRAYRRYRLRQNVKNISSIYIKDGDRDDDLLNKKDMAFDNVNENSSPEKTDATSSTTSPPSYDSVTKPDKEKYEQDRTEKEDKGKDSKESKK
Assay: Inhibition of human Nav1.7 expressed in CHO-K1 cells at -120 mV holding potential incubated over 5 mins measured at 15 secs interval by Qpatch clamp assay
Type: cell-based
pIC50: −log10 of the molar value.
quantity name: pIC50

CCN[C@@H]1CCC=C(c2ccc(F)cc2)[C@H]1CNc1cc(F)c(S(=O)(=O)Nc2cscn2)cc1Cl = 6.70

A = CCN(CC)[C@@H]1CCC=C(c2ccc(F)cc2)[C@H]1COc1cc(F)c(S(=O)(=O)Nc2cscn2)cc1Cl (racemic)
B = CC(=O)N[C@@H]1CCC=C(c2ccc(F)cc2)[C@H]1COc1cc(F)c(S(=O)(=O)Nc2cscn2)cc1Cl (racemic)
C = CCN[C@@H]1CCC=C(c2ccc(F)cc2)[C@H]1COc1cc(F)c(S(=O)(=O)Nc2cscn2)cc1Cl.Cl (racemic)
D = CC(C)N[C@@H]1CCC=C(c2ccc(F)cc2)[C@H]1COc1cc(F)c(S(=O)(=O)Nc2cscn2)cc1Cl.Cl (racemic)
E = O=S(=O)(Nc1cscn1)c1cc(Cl)c(OC[C@@H]2C(c3ccc(F)cc3)=CCC[C@H]2n2ccnc2)cc1F (racemic)
Rank the items in ascending order with respect to pIC50. Lab note: record answer as labels in requested order. E, B, A, D, C
(E: 5.63, B: 6.29, A: 6.51, D: 7.03, C: 7.23)

----------
Test: Fraction unbound in human plasma at 2 uM after 4 hrs by LC-MS/MS analysis
Assay type: ADME, cell-free
quantity name: fraction unbound at 4 h, 2 µM

N[C@@H]1CCC=C(c2ccc(F)cc2)[C@H]1COc1cc(F)c(S(=O)(=O)Nc2cscn2)cc1Cl = 0.008

I = Cl.N[C@@H]1CCC=C(c2ccc(F)cc2)[C@H]1CNc1cc(F)c(S(=O)(=O)Nc2cscn2)cc1Cl
II = CCN[C@@H]1CCC=C(c2ccc(F)cc2)[C@H]1COc1cc(F)c(S(=O)(=O)Nc2cscn2)cc1Cl.Cl
// pick larger fraction unbound at 4 h, 2 µM from pair: I vs II Answer format: the label of the selected item. II

----------
Test: Half life in Sprague-Dawley rat at 3 mg/kg administered as single iv bolus by LC-MS/MS analysis
Assay type: ADME, organism-based
Details: in vivo
quantity name: half-life (h)

a = CCN[C@@H]1CCC=C(c2ccc(F)cc2)[C@H]1COc1cc(F)c(S(=O)(=O)Nc2cscn2)cc1Cl.Cl
b = Cl.N[C@@H]1CCC=C(c2ccc(F)cc2)[C@H]1CNc1cc(F)c(S(=O)(=O)Nc2cscn2)cc1Cl
// compare: a vs b , metric half-life, want the smaller Answer format: the label of the selected item. a

----------
Assay: in vitro
Conditions: human, Caco-2
quantity name: efflux ratio at 2 h, 2 µM

CC(C)N[C@@H]1CCC=C(c2ccc(F)cc2)[C@H]1COc1cc(F)c(S(=O)(=O)Nc2cscn2)cc1Cl.Cl (racemic) = 37

P = CN(C)[C@@H]1CCC=C(c2ccc(F)cc2)[C@H]1COc1cc(F)c(S(=O)(=O)Nc2cscn2)cc1Cl.Cl (racemic)
Q = Cl.N[C@@H]1CCC=C(c2ccc(F)cc2)[C@H]1CNc1cc(F)c(S(=O)(=O)Nc2cscn2)cc1Cl
R = CN[C@@H]1CCC=C(c2ccc(F)cc2)[C@H]1COc1cc(F)c(S(=O)(=O)Nc2cscn2)cc1Cl.Cl (racemic)
S = CCN[C@@H]1CCC=C(c2ccc(F)cc2)[C@H]1COc1cc(F)c(S(=O)(=O)Nc2cscn2)cc1Cl.Cl (racemic)
Rank the items in ascending order with respect to efflux ratio at 2 h, 2 µM. Lab note: record answer as labels in requested order. P, S, R, Q

----------
Test: Plasma concentration in Sprague-Dawley rat spinal nerve ligation model at 100 mg/kg administered as single dose via oral gavage measured after 4 hrs by LC-MS/MS analysis
Assay type: ADME, organism-based
quantity name: concentration at 4 h (µM)

P = Cl.N[C@@H]1CCC=C(c2ccc(F)cc2)[C@H]1CNc1cc(F)c(S(=O)(=O)Nc2cscn2)cc1Cl
Q = CCN[C@@H]1CCC=C(c2ccc(F)cc2)[C@H]1COc1cc(F)c(S(=O)(=O)Nc2cscn2)cc1Cl.Cl
// pick larger concentration at 4 h from pair: P vs Q Answer format: the label of the selected item. Q
